Hello, the source for this data is paper PMC3943411, in case you need it.

target.or.test.system: T1, PUF (S6) (human, UniProt Q14671 828-1176, S863N;C935N;N971C;H972Y;C1007N;N1043C;N1122C)
T1 sequence: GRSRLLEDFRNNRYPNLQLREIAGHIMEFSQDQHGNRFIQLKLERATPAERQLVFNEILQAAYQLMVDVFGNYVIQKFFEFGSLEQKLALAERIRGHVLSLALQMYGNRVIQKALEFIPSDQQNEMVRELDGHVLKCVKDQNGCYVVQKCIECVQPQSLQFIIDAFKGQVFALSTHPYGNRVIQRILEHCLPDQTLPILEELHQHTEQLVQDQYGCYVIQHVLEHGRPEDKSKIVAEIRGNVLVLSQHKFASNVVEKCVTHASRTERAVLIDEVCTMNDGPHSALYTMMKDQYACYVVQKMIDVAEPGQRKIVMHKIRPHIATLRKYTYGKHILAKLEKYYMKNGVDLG
assay.remarks: fluorescence polarization/anisotropy; noncognate; 1 nM RNA; 20 mM Tris-HCl pH 7.5, 0.5 mM EDTA, 50 mM KCl, 0.1 mg/ml BSA; temperature not stated; protein corrected for active fraction (about 30%); KD mean ± SD, n = 3
condition.context: protein: recombinant; tags: His-tag (pET28a); label: 5' 6-carboxyfluorescein
recorded.endpoint: pKd
Convention used: pKd is expressed as -log10 of the molar concentration.

# input binder: CCAGAAUUGUAUAUAUUCG (ssRNA) [WT RNA (UGUAUAUA)] ; wanted: its pKd
7.05
